Value source: ChEMBL document CHEMBL4673258

Listed next: entries and their corresponding t1/2.
Assay: Half life in Sprague-Dawley rat at 0.3 mg/kg, iv by LC-MS/MS analysis
Assay type: ADME, organism-based
Settings: in vivo
outcome measure: t1/2 (h)

- smiles notation: "CNC(=O)c1cn(C[C@H](F)CCc2ccc(NC(=O)Cc3cc(OC4CC(F)(F)C4)cc(C)n3)nn2)nn1.Cl.Cl"
  outcome measure: "t1/2"
  observed measurement: 5.3
- smiles notation: "CNC(=O)c1cn(C[C@H](F)CCc2ccc(NC(=O)Cc3cc(-c4cccc(OC(F)(F)F)c4)ccn3)nn2)nn1.Cl"
  outcome measure: "t1/2"
  observed measurement: 2.7
- smiles notation: "CNC(=O)c1cn(C[C@H](F)CCc2ccc(NC(=O)Cc3cc(C(F)(F)F)cc(C)n3)nn2)nn1"
  outcome measure: "t1/2"
  observed measurement: 3.3
- smiles notation: "CNC(=O)c1cn(C[C@H](F)CCc2ccc(NC(=O)Cc3cc(OC4CC(F)(F)C4)ccn3)nn2)nn1.Cl"
  outcome measure: "t1/2"
  observed measurement: 1.2

----------
Assay: AUClast in cynomolgus monkey at 3 mg/kg, po administered via gavage by LC-MS/MS analysis
Format: ADME, organism-based, Macaca fascicularis
Design: route oral, time 0 - last, dose 3 mg/kg
Conditions: in vivo
outcome measure: AUC(0-t)

- smiles notation: "CNC(=O)c1cn(C[C@H](F)CCc2ccc(NC(=O)Cc3cc(OC4CC(F)(F)C4)cc(C)n3)nn2)nn1.Cl.Cl"
  outcome measure: "AUC(0-t)"
  observed measurement: "8.7 µM·h"

----------
Conditions: rat, microsomes, 0.75 h, 1 µM
outcome measure: CLH (mL/min)

- smiles notation: "O=C(Cc1ccccn1)Nc1ccc(CCCCn2cc(C(=O)NCc3cccc(OC(F)(F)F)c3)nn2)nn1"
  outcome measure: "CLH"
  observed measurement: 283
- smiles notation: "O=C(Cc1cccc(OC(F)(F)F)c1)Nc1ccc(CCCCn2cc(C(=O)NCc3ccccn3)nn2)nn1"
  outcome measure: "CLH"
  observed measurement: 162
- smiles notation: "O=C(Cc1cccc(OC(F)(F)F)c1)Nc1ccc(CCCCc2nnc(NC(=O)Cc3ccccn3)s2)nn1"
  outcome measure: "CLH"
  observed measurement: 203
- smiles notation: "O=C(Cc1ccccc1)Nc1ccc(CCCCn2cc(C(=O)NCc3ccccc3)nn2)nn1"
  outcome measure: "CLH"
  observed measurement: 128
- smiles notation: "CNC(=O)c1cn(CCCCc2ccc(NC(=O)Cc3cc(OCC(F)(F)F)ccn3)nn2)nn1"
  outcome measure: "CLH"
  observed measurement: 0.4

----------
Experiment: Clearance in Beagle dog at 0.3 mg/kg, iv by LC-MS/MS analysis
Type: ADME, organism-based, Canis lupus familiaris
Conditions: in vivo
outcome measure: clearance

- smiles notation: "CNC(=O)c1cn(C[C@H](F)CCc2ccc(NC(=O)Cc3cc(OC4CC(F)(F)C4)cc(C)n3)nn2)nn1.Cl.Cl"
  outcome measure: "clearance"
  observed measurement: "0.59 mL/min/kg"

----------
Assay: Cmax in cynomolgus monkey at 3 mg/kg, po administered via gavage by LC-MS/MS analysis
Assay type: ADME, organism-based, Macaca fascicularis
Set-up: route oral, dose 3 mg/kg
Details: in vivo

- smiles notation: "CNC(=O)c1cn(C[C@H](F)CCc2ccc(NC(=O)Cc3cc(OC4CC(F)(F)C4)cc(C)n3)nn2)nn1.Cl.Cl"
  Cmax [µM]: 6.5

----------
Listed next: entries and their corresponding Cmax.
Assay: Cmax in Sprague-Dawley rat at 3 mg/kg, po administered via gavage by LC-MS/MS analysis
Type: ADME, organism-based
Design: route oral, dose 3 mg/kg
Conditions: in vivo

- smiles notation: "CNC(=O)c1cn(C[C@H](F)CCc2ccc(NC(=O)Cc3cc(OC4CC(F)(F)C4)cc(C)n3)nn2)nn1.Cl.Cl"
  units: "µM"
  Cmax: 32
- smiles notation: "CNC(=O)c1cn(C[C@H](F)CCc2ccc(NC(=O)Cc3cc(OC4CC(F)(F)C4)ccn3)nn2)nn1.Cl"
  units: "µM"
  Cmax: 5.8
- smiles notation: "CNC(=O)c1cn(C[C@H](F)CCc2ccc(NC(=O)Cc3cc(C(F)(F)F)cc(C)n3)nn2)nn1"
  units: "µM"
  Cmax: 4.4

----------
Assay: Intrinsic clearance in monkey liver microsomes assessed per kg protein at 1 uM measured up to 45 mins in presence of NADPH by LC-MS/MS analysis
Type: ADME, Macaca mulatta, Microsome
Settings: rhesus monkey, 0.75 h

- molecule: "CNC(=O)c1cn(C[C@H](F)CCc2ccc(NC(=O)Cc3cc(OC4CC(F)(F)C4)cc(C)n3)nn2)nn1 [IPN-60090]"
  CLint: "21 mL/min/kg"

----------
Assay: Oral bioavailability in Beagle dog at 3 mg/kg administered via gavage by LC-MS/MS analysis
Format: ADME, organism-based, Canis lupus familiaris
Conditions: in vivo

- smiles notation: "CNC(=O)c1cn(C[C@H](F)CCc2ccc(NC(=O)Cc3cc(OC4CC(F)(F)C4)ccn3)nn2)nn1.Cl"
  qual: "="
  F, %: 34
- smiles notation: "CNC(=O)c1cn(C[C@H](F)CCc2ccc(NC(=O)Cc3cc(OC4CC(F)(F)C4)cc(C)n3)nn2)nn1.Cl.Cl"
  qual: ">"
  F, %: 100
- smiles notation: "CNC(=O)c1cn(C[C@H](F)CCc2ccc(NC(=O)Cc3cc(C(F)(F)F)cc(C)n3)nn2)nn1"
  qual: "="
  F, %: 21
- smiles notation: "CNC(=O)c1cn(C[C@H](F)CCc2ccc(NC(=O)Cc3cc(-c4cccc(OC(F)(F)F)c4)ccn3)nn2)nn1.Cl"
  qual: "="
  F, %: 8

----------
Assay: Half life in Beagle dog at 0.3 mg/kg, iv by LC-MS/MS analysis
Type: ADME, organism-based, Canis lupus familiaris
Conditions: Beagle, in vivo
outcome measure: half-life (h)

- smiles notation: "CNC(=O)c1cn(C[C@H](F)CCc2ccc(NC(=O)Cc3cc(OC4CC(F)(F)C4)cc(C)n3)nn2)nn1.Cl.Cl"
  observed measurement: 5.3

----------
Test: Intrinsic clearance in dog hepatocytes […] at 2 uM measured after 15 to 120 mins by LC-MS analysis
Assay type: ADME, cell-based, Canis lupus familiaris, Hepatocyte
Details: time 15-120 min
Listed next: entries and their corresponding CLint.
outcome measure: CLint (mL/min/kg)

- smiles notation: "CNC(=O)c1cn(C[C@H](F)CCc2ccc(NC(=O)Cc3cc(C(F)(F)F)cc(C)n3)nn2)nn1"
  observed measurement: 9
- smiles notation: "CNC(=O)c1cn(C[C@H](F)CCc2ccc(NC(=O)Cc3cc(OC4CC(F)(F)C4)ccn3)nn2)nn1"
  observed measurement: 4
- smiles notation: "CNC(=O)c1cn(C[C@H](F)CCc2ccc(NC(=O)Cc3cc(-c4cccc(OC(F)(F)F)c4)ccn3)nn2)nn1"
  observed measurement: 12
- smiles notation: "CNC(=O)c1cn(C[C@H](F)CCc2ccc(NC(=O)Cc3cc(OC4CC(F)(F)C4)cc(C)n3)nn2)nn1"
  observed measurement: 7

----------
Assay: Half life in cynomolgus monkey at 0.3 mg/kg, iv by LC-MS/MS analysis
Type: ADME, organism-based, Macaca fascicularis
Settings: in vivo
outcome measure: half-life (min)

- smiles notation: "CNC(=O)c1cn(C[C@H](F)CCc2ccc(NC(=O)Cc3cc(OC4CC(F)(F)C4)cc(C)n3)nn2)nn1.Cl.Cl"
  units: "min"
  observed measurement: 54

----------
Test: Permeability across basolateral to apical side in human Caco-2 cells at 10 uM measured after 90 mins by LC-MS/MS analysis
Type: ADME, cell-based
outcome measure: permeability

- compound: "CNC(=O)c1cn(C[C@H](F)CCc2ccc(NC(=O)Cc3cc(OC4CC(F)(F)C4)cc(C)n3)nn2)nn1 [IPN-60090]"
  outcome measure: "permeability"
  observed measurement: "25 10^-6 cm/s"
- compound: "CNC(=O)c1cn(C[C@H](F)CCc2ccc(NC(=O)Cc3cc(C(F)(F)F)cc(C)n3)nn2)nn1"
  outcome measure: "permeability"
  observed measurement: "25 10^-6 cm/s"
- compound: "CNC(=O)c1cn(C[C@H](F)CCc2ccc(NC(=O)Cc3cc(OC4CC(F)(F)C4)ccn3)nn2)nn1"
  outcome measure: "permeability"
  observed measurement: "20 10^-6 cm/s"
- compound: "CNC(=O)c1cn(C[C@H](F)CCc2ccc(NC(=O)Cc3cc(-c4cccc(OC(F)(F)F)c4)ccn3)nn2)nn1"
  outcome measure: "permeability"
  observed measurement: "21 10^-6 cm/s"

----------
Test: Intrinsic clearance in mouse liver microsomes assessed per kg protein at 1 uM measured up to 45 mins in presence of NADPH by LC-MS/MS analysis
Format: ADME, Microsome
Conditions: 0.75 h
outcome measure: CLint

- smiles notation: "CNC(=O)c1cn(C[C@H](F)CCc2ccc(NC(=O)Cc3cc(OC4CC(F)(F)C4)cc(C)n3)nn2)nn1"
  observed measurement: "55 mL/min/kg"
